Assay: chemical genetic growth profiling, strain panel (AID 1159580);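 note: tested at 20 µM; growth read once vehicle control cultures reached saturation at 30 °C; lower values mean less growth of the strain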
Details: S. cerevisiae deletion strains, growth OD, locus YIL066C, strain RNR3
Hit rate of the full screen: of about 5,500 compounds, about 2,000 (36%) were called active. Roughly 18% stayed inconclusive and do not appear here. Cut-off read from the data, not from the text of the source: active = normalized growth mostly below about 0.91 (no sharp cut-off); inconclusive = no clear call, values can overlap the other calls; inactive = mostly above about 0.92. The list shows a part of the results.
Possible outcomes: active, inactive

INSERT INTO measurements (compound, answer_label) VALUES
  ('N[C@@H]1CONC1=O', 'inactive'),
  ('CC(=O)Nc1cccc(O)c1', 'inactive'),
  ('COc1c2c(cc3c1OCO3)CC[N+](C)=C2', 'inactive'),
  ('COc1cc2c3cc1Oc1cc(ccc1O)C[C@@H]1c4c(cc(OC)c(O)c4Oc4ccc(cc4)C[C@@H]3N(C)CC2)CC[N+]1(C)C', 'inactive'),
  ('C[n+]1cc2c3c(ccc2c2ccc4cc5c(cc4c21)OCO5)OCO3', 'active'),
  ('Nc1ccc(C(=O)Oc2ccccc2)c(O)c1', 'active'),
  ('CC(=O)Nc1ccc(OC(=O)c2ccccc2O)cc1', 'inactive'),
  ('CCN(CCCCOC(=O)c1ccc(OC)c(OC)c1)C(C)Cc1ccc(OC)cc1 (stereo not given)', 'inactive'),
  ('Nc1ccc(C(=O)O)c(O)c1 (tested in a mixture with another compound)', 'inactive'),
  ('COC(=O)C[C@H]1C(C)(C)C(=O)[C@@H]2CC3=C4CC(OC)O[C@@H](c5ccoc5)[C@]4(C)CCC3[C@@]1(C)C2=O (stereo not given in full)', 'inactive');
